test: In vitro thromboxane receptor antagonist activity was determined by inhibition of U-46619 induced aggregation of washed human platelets
measuredProperty: IC50 (nM)

samplesmiles=O=C(O)CC/C=C\CC[C@@H]1[C@@H](c2cccnc2)SC[C@H]1OCc1ccc(-c2ccccc2)cc1 measuredresult=22

---

Here the recorded pIC50 is given for each entry.
test: In vitro thromboxane receptor antagonist activity was determined by inhibition of U-46619 induced aggregation of washed human platelets
pIC50: −log10 of the molar value.
measuredProperty: pIC50

compound=O=C(O)CC/C=C\CC[C@H]1[C@@H](OCc2ccc(-c3ccccc3)cc2)CS(=O)(=O)[C@@H]1c1cccnc1 measuredproperty=pIC50 measuredresult=7.62
compound=O=C(O)CC/C=C\CC[C@@H]1[C@@H](c2cccnc2)[S@+]([O-])C[C@H]1OCc1ccc(-c2ccccc2)cc1 measuredproperty=pIC50 measuredresult=7.11
compound="O=C(O)CC/C=C\\CC[C@@H]1[C@@H](N2CCCCC2)[C@@H](O)C[C@@H]1OCc1ccc(-c2ccccc2)cc1 [GR 32191]" measuredproperty=pIC50 measuredresult=7.92
compound="O=C(O)CC/C=C\\CC[C@H]1[C@@H](OCc2ccc(-c3ccccc3)cc2)C[S+]([O-])[C@@H]1c1cccnc1 (some centres undefined)" measuredproperty=pIC50 measuredresult=7.24

---

Entries and their pIC50
assay: In vitro thromboxane receptor antagonist activity was determined by inhibition of U-46619 induced aggregation of washed human platelets
pIC50: −log10 of the molar value.
measuredProperty: pIC50

samplesmiles=O=C(O)CC/C=C\CC[C@@H]1[C@@H](c2cccnc2)[S@@+]([O-])C[C@H]1OCc1ccc(-c2ccccc2)cc1 measuredresult=6.98
samplesmiles=O=C(O)CC/C=C\CC[C@H]1[C@@H](OCc2ccc(-c3ccccc3)cc2)CS[C@@H]1c1cccnc1 measuredresult=7.34
samplesmiles=O=C(O)CC/C=C\CC[C@@H]1[C@@H](c2cccnc2)S(=O)(=O)C[C@H]1OCc1ccc(-c2ccccc2)cc1 measuredresult=7.74
samplesmiles=O=C(O)CCC/C=C\C[C@@H]1[C@@H](c2cccnc2)SC[C@H]1OCc1ccc(-c2ccccc2)cc1 measuredresult=6.64
